Origin of measurements: the supplement of paper PMC10724198

Provide the recorded protein stability index for the entries that follow.
# System: Saccharomyces cerevisiae
# EXPERIMENT NOTES: protein stability index of tFT-peptide fusion in deletion strain of DOA10 (PSI (0-1 scale)); higher = more stable (slower turnover)
Give bare numbers.

Reference set (5 entries):
AITLPMCMLLLR : 0.651
RVTRLDAIYFHI : 0.527
RVTRLDAIYFRN : 0.676
GLYMYSVGCWFR : 0.605
FLVSLPILLFFR : 0.539

Look up protein stability index for the entries below, preserving their order.
1. CLVSLIILLFFR
2. RVTRLDPIYFRI
3. AITLAMCPLLLR
4. RVTRLNAIYFRI

Ans.
[0.363, 0.707, 0.65, 0.496]

====

# System: Saccharomyces cerevisiae
# EXPERIMENT NOTES: protein stability index of tFT-peptide fusion (C-terminal peptide) (PSI (0-1 scale)); higher = more stable (slower turnover)
# CONDITIONS: genetic background: wild type; temperature: 30 C
Provide the recorded protein stability index for the entries that follow.
Numbers only.

Reference set (3 entries):
PPPPRPAPAPLL : 0.695
RFGSFVSISRVG : 0.603
VCGECGWRRVCL : 0.734

Look up protein stability index for the entries below, preserving their order.
1. PSSAPPGSPGHL
2. RKKKNQKHKKKN

Ans.
0.701
0.705

Look up protein stability index for the entries below, preserving their order.
1. FGCLGVLGAGRC
2. IVLRRRKVTRRI
3. TARPPSPPSTRL
4. PALPPRLPPPPL
5. PTPPLPLPRPLP

Ans.
1. 0.713
2. 0.68
3. 0.732
4. 0.602
5. 0.688

Look up protein stability index for the entries below, preserving their order.
1. IIKRKKLMEKRT
2. GEAVAGRRQESP
3. PCARLAGSPLPT
4. PRIWDLVDIGTL
5. LYRFVSVLSDVH
6. IIKPPDIQQSRQ

Ans.
[0.663, 0.695, 0.688, 0.735, 0.577, 0.739]

====

# Tested on: Saccharomyces cerevisiae
# EXPERIMENT NOTES: protein stability index of tFT-peptide fusion (C-terminal peptide) (PSI (0-1 scale)); higher = more stable (slower turnover)
# CONDITIONS: genetic background: wild type; temperature: 30 C
VALUE KIND: protein stability index
Answers are plain numbers.

LATDVGHRLLGI : 0.707

Look up protein stability index for the entries below, preserving their order.
1. VRFGYGRIVWDI
2. KCKLNDTETMGK
3. GGGVRLMSIHRG
4. FFVGGVTDLFVS

Ans.
[0.5, 0.693, 0.662, 0.724]

Look up protein stability index for the entries below, preserving their order.
1. LQLGFCFVAQFI
2. GGGDRDGGTASG
3. GVNTKEEPNEFI
4. APPEAPQEPLTL
5. PAPPPHSAPPLP

Ans.
1. 0.509
2. 0.698
3. 0.698
4. 0.727
5. 0.739

Look up protein stability index for the entries below, preserving their order.
1. SNRRSSRSLYYM
2. PPPRPTVPPGSR
3. GPGGGGGLWVRV
4. GVVGDGGRLSGD
5. CCSSCFVLSKAA
6. QTSASSAALLRP
7. PVGFPLPCPFFT
8. GTGGRMIRWGLG

Ans.
1. 0.698
2. 0.668
3. 0.617
4. 0.667
5. 0.646
6. 0.622
7. 0.688
8. 0.667

Look up protein stability index for the entries below, preserving their order.
1. PLPPPRFPPPRL
2. VGVKLVVEAIRR
3. PFAPPPRPGPFP
4. RVRRETRLRQIA
5. GSVHLTKERHLV
6. FLSRVVLVVLLV

Ans.
1: 0.68; 2: 0.632; 3: 0.697; 4: 0.27; 5: 0.319; 6: 0.288

Look up protein stability index for the entries below, preserving their order.
1. WFCSVICGVFSV
2. YTQKFTFYGLPA

Ans.
1: 0.568; 2: 0.027

Look up protein stability index for the entries below, preserving their order.
1. FTPPPPPPPPVL
2. EFKGRHEETTKS
3. LPPPAPRSHCPL
4. QPLPLPSPPPPA
5. VVGVCLDIVCSP
6. GSLGTTTILRKT

Ans.
1: 0.669; 2: 0.72; 3: 0.725; 4: 0.741; 5: 0.519; 6: 0.67

Look up protein stability index for the entries below, preserving their order.
1. GLLENLKKRSRG
2. PSLSSHPALLFI
3. SLGSRFWGPYPF
4. EGAGGVEGAAWG

Ans.
1: 0.691; 2: 0.752; 3: 0.679; 4: 0.7

Look up protein stability index for the entries below, preserving their order.
1. SNVRSRGAGISM
2. MVEFWDLPGRSC
3. GLPTPSNVPPFG
4. WGSVGVVGLFSG

Ans.
1. 0.729
2. 0.744
3. 0.703
4. 0.69

====

# Test system: Saccharomyces cerevisiae
# EXPERIMENT NOTES: protein stability index of tFT-peptide fusion in wild type (PSI (0-1 scale)); higher = more stable (slower turnover)
# CONDITIONS: genetic background: wild type
Provide the recorded protein stability index for the entries that follow.

Reference set (5 entries):
ARWRDGLWRGAS : 0.651
LKILRQKMNHQNY : 0.595
GLYMCSVGCWCR : 0.334
VRGAVGQWRLVG : 0.147
CTSCGYKFVTNN : 0.495

Look up protein stability index for the entries below, preserving their order.
1. RVTRLDAIAFRI
2. RVTRLDAIYFRN

Ans.
0.673
0.6

Look up protein stability index for the entries below, preserving their order.
1. LVVYLSCVACPN
2. KKHKKGQKQKINR
3. FSMRWTFRYWVNC

Ans.
1: 0.0732; 2: 0.644; 3: 0.114

Look up protein stability index for the entries below, preserving their order.
1. LKILRQKMNRQN
2. PSLAASYWRVVG

Ans.
1. 0.21
2. 0.157

Look up protein stability index for the entries below, preserving their order.
1. CLVSLPILLFTR
2. KKHKKGQKQKINQ
3. LKILRQKMNHQN
4. ARWRVGAWRGAS
5. RVTRLDAIYFRIR
6. AITLPMCPDLLR

Ans.
[0.314, 0.644, 0.192, 0.427, 0.589, 0.669]

Qu. Give protein stability index for the following sequence: `FSPRWTFRYWVN`
Ans. 0.075

====

# Tested on: Saccharomyces cerevisiae
# EXPERIMENT NOTES: protein stability index of tFT-peptide fusion (C-terminal peptide) (PSI (0-1 scale)); higher = more stable (slower turnover)
# CONDITIONS: genetic background: wild type; temperature: 37 C
Lab note: anything with protein stability index at or over 0.6 counts as Met; the rest go in Not met.

VCLVAGVFFCLL : Not met
LLRFFPLLLFSF : Not met
ACIFDMMWFWLF : Not met

Qu. Does `LCSLPIVCCFFL` have a reported protein stability index of at least 0.6?
Ans. Not met

Qu. Does `ELNERRKRLVTN` have a reported protein stability index of at least 0.6?
Ans. Not met

Qu. Does `ASLSSSRPPLLP` have a reported protein stability index of at least 0.6?
Ans. Met

Qu. Does `VSLSEVAIIVHG` have a reported protein stability index of at least 0.6?
Ans. Not met

Qu. Does `LPSLPPPPPPPP` have a reported protein stability index of at least 0.6?
Ans. Met

Qu. Does `SWELKWVYARVV` have a reported protein stability index of at least 0.6?
Ans. Not met

====

# System: Saccharomyces cerevisiae
# EXPERIMENT NOTES: protein stability index of tFT-peptide fusion (C-terminal peptide) (PSI (0-1 scale)); higher = more stable (slower turnover)
# CONDITIONS: genetic background: wild type; temperature: 30 C
Provide the recorded protein stability index for the entries that follow.

Reference set (3 entries):
LQVSQEFTTKTQ [NUP82 C-terminal 12 aa] : 0.709
VPEEQRIKRRKI [IRC4 C-terminal 12 aa] : 0.3
DLKIYLQQDESL [YEL023C C-terminal 12 aa] : 0.672

Look up protein stability index for the entries below, preserving their order.
1. DKVPVHYPPVVE [SYM1 C-terminal 12 aa]
2. RQRRLQAAGRWF [PCP1 C-terminal 12 aa]
3. RAGSHSVGLLPM [UIP5 C-terminal 12 aa]
4. TKWWLHYYRKLR [SBE2 C-terminal 12 aa]

Ans.
0.709
0.685
0.684
0.701

Look up protein stability index for the entries below, preserving their order.
1. KHGLNDWIVGQK [YPL225W C-terminal 12 aa]
2. LPKPAGWQNHIG [KTR1 C-terminal 12 aa]
3. KTYIKNDVEIFN [HBN1 C-terminal 12 aa]
4. EATYKVLQQLHK [ADE8 C-terminal 12 aa]

Ans.
0.745
0.68
0.726
0.722

Qu. Give protein stability index for the following sequence: NDLITYLKKACE [CYC1 C-terminal 12 aa]
Ans. 0.683
